target: T1, MMAC1.388-403 biotin-ENEPFDEDQHTQITKV-COOH (SMILES …)
T1 construct: also called the 16 C-terminal amino acids of MMAC1
T1 peptide: Biotin-ENEPFDEDQHTQITKV-OH
assayNotes: peptide binding ELISA: GST-PDZ on plate, biotin-peptide/streptavidin-alkaline phosphatase complex, colorimetric
Text: cDNAs encoding each of the MMSC1 PDZ domains (amino acid residues identified in Table 1), and any desired control proteins, were generated by PCR and subcloned as glutathione S-transferase (GST) fusions in pGEX vectors (Pharmacia). […] Bound peptide/streptavidin-alkaline phosphatase complex was then quantitated by a colorimetric phosphatase assay read on a 96-well plate reader.
* marks the point of attachment. Biotin = O=C1N[C@H]2[C@H](CS[C@H]2CCCCC(=O)*)N1
valueKind: A405 (A405)
Hi! Could you send only the number? It should be in A405, unit omitted.

Examples with their reported A405 follow.
binder	A405 (A405)
GST fusion of MMSC1 PDZ domain 8 (amino acids 1436-1518) (other, Expressed in E. coli, purified on glutathione-agarose, adsorbed to the ELISA plate; GST is placed N-terminal as in pGEX vectors; also called MMSc1 PDZ 8; PDZ domain number 8; not shown: glutathione S-transferase (GST) encoded by pGEX vectors (Pharmacia)) MIIEISKGRSGLGLSIVGGKDTPLNAIVIHEVYEEGAAARDGRLWAGDQILEVNGVDLRNSSHEEAITALRQTPQKVRLVVYR	0.3
GST fusion of MMSC1 PDZ domain 6 (amino acids 1067-1158) (other, Expressed in E. coli, purified on glutathione-agarose, adsorbed to the ELISA plate; GST is placed N-terminal as in pGEX vectors; also called MMSc1 PDZ 6; PDZ domain number 6; not shown: glutathione S-transferase (GST) encoded by pGEX vectors (Pharmacia)) RIVEIFREPNVSLGISIVGGQTVIKRLKNGEELKGIFIKQVLEDSPAGKTNALKTGDKILEVSGVDLQNASHSEAVEAIKNAGNPVVFIVQS	0.23

Read the next record carefully.
# A405 of GST fusion of MMSC1 PDZ domain 3 (amino acids 364-451) (other, Expressed in E. coli, purified on glutathione-agarose, adsorbed to the ELISA plate; GST is placed N-terminal as in pGEX vectors; also called MMSc1 PDZ 3; PDZ domain number 3; not shown: glutathione S-transferase (GST) encoded by pGEX vectors (Pharmacia)) YNVELVRKDGQSLGIRIVGYVGTSHTGEASGIYVKSVIPGSAAYHNGHIQVNDKIVAVDGVNIQGFANHDVVEVLRNAGQVVHLTLVR = 0.01
